target: T1, human IL4 (human, UniProt P05112 25-153, biotinylated in the SPR and competition assays (sites not given))
T1 sequence: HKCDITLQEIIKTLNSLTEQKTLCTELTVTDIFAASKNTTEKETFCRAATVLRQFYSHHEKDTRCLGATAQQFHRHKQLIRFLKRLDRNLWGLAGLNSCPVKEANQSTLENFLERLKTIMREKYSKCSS
method-summary: cell-based or functional assay
attribute-measured: Ramos Assay IC50 (pM)
Record the value in pM, omitting the unit from your answer.

# lookup: Ramos Assay IC50 of C01_6G9_V1_C06_44C12_V2 (designed binder, bispecific IL13/IL4 ankyrin repeat protein with (GGGGS)4 linker; also called bispecific AR protein) DLDKKLLEAARAGQDDEVRILMANGADVNARDSYGSTPLHLAAREGHLEIVEVLLKYGADVNAADFIGDTPLHLAAYRGHLEIVEVLLKYGADVNASDITGETPLHLAAQIGHLEIVEVLLKHGADVNAQDKFGKTAFDISIDNGNEDLAEILQKLNGGGGSGGGGSGGGGSGGGGSDLGKKLLEAASAGQDDEVHILMANGADVNALDDSGYTPLHLAAEDGHLEIVEVLLKHGADVNAADRLGDTPLHLAAFVGHLEIVEVLLKAGADVNAVDLAGVTPLHVAAFYGHLEIVEVLLKAGADVNAQDKFGKTAFDISIDNGNEDLAEILQKLN 8.6
